Tested on: NCI-H23 complex spheroids with HUVEC/MSC, viability
method_notes: Anticancer human tumor NCI-H23 cell line growth inhibition [RAS];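 further: spheroids exposed to compound for 7 days; 100% = DMSO vehicle control viability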
condition_summary: second compound 10 µM; first compound 1 µM; active compounds read low
Text: RAS pathway inhibitors in Combinations in Complex Spheroids A high-throughput screen of multi-cell type tumor spheroids was designed to identify active combinations of RAS pathway inhibitors and targeted small molecules. Complex spheroids include a stromal component modeled by human endothelial cells (HUVEC) and fibroblasts modeled by human mesenchymal stem cells (MSCs). […] Compounds. […] If the clinical Cmax for an agent had not been determined, the highest concentration tested was 10 microM. […]
Binary call on viability, T/C with cut-off 20%: strictly below means 1.0, and equality or higher means 0.0.

Enquiry: Does this compound meet the criterion viability, T/C < 20%? CC(=O)OC12COC1CC(O)C1(C)C(=O)C(O)C3=C(C)C(OC(=O)C(O)C(NC(=O)OC(C)(C)C)c4ccccc4)CC(O)(C(OC(=O)c4ccccc4)C21)C3(C)C (stereo not given) + C#Cc1c(F)ccc2cc(O)cc(-c3ncc4c(N5CC6CCC(C5)N6)nc(OCC56CCCN5CC(F)C6)nc4c3F)c12
Return: 1.0

Enquiry: viability, T/C strictly < 20% for this compound? C=CC(=O)Nc1cc(Nc2nccc(-c3cn(C)c4ccccc34)n2)c(OC)cc1N(C)CCN(C)C + C#Cc1c(F)ccc2cc(O)cc(-c3ncc4c(N5CC6CCC(C5)N6)nc(OCC56CCCN5CC(F)C6)nc4c3F)c12
Return: 0.0

Enquiry: Hello, is viability, T/C of the following compound strictly smaller than 20%? NC1c2ccccc2OC12CCN(c1cnc3c(N4CCCc5ncccc54)n[nH]c3n1)CC2 (stereo not given) + C#Cc1c(F)ccc2cc(O)cc(-c3ncc4c(N5CC6CCC(C5)N6)nc(OCC56CCCN5CC(F)C6)nc4c3F)c12
Return: 1.0

Enquiry: Is viability, T/C strictly under 20% for the entry O=C(c1ccc(F)c(F)c1Nc1ccc(I)cc1F)N1CC(O)([C@@H]2CCCCN2)C1 + C#Cc1c(F)ccc2cc(O)cc(-c3ncc4c(N5CC6CCC(C5)N6)nc(OCC56CCCN5CC(F)C6)nc4c3F)c12 ?
Return: 1.0

Enquiry: Say whether its viability, T/C is strictly beneath 20%. Entry: Cc1nc(N2CCC3(CC2)COC(C)C3N)c(CO)nc1Sc1ccnc(N)c1Cl (stereo not given) + C#Cc1c(F)ccc2cc(O)cc(-c3ncc4c(N5CC6CCC(C5)N6)nc(OCC56CCCN5CC(F)C6)nc4c3F)c12
Return: 0.0

###

Kindly supply the reported viability, T/C values for the records listed here.
Tested on: NCI-H23 complex spheroids with HUVEC/MSC, viability
method_notes: Anticancer human tumor NCI-H23 cell line growth inhibition [RAS];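 further: spheroids exposed to compound for 7 days; 100% = DMSO vehicle control viability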
condition_summary: second compound 0.1 µM; first compound 3.16 µM; active compounds read low

Just so you know, measured viability, T/C for C[C@@H](NC(=O)c1ncnc(N)c1Cl)c1ncc(C(=O)Nc2cc(C(F)(F)F)c(Cl)cn2)s1 + C#Cc1c(F)ccc2cc(O)cc(-c3ncc4c(N5CC6CCC(C5)N6)nc(OCC56CCCN5CC(F)C6)nc4c3F)c12 came out at 91.8%

Looking up NC1c2ccccc2OC12CCN(c1cnc3c(N4CCCc5ncccc54)n[nH]c3n1)CC2 (stereo unspecified) + C=CC(=O)N1CCN(c2nc(OCC3CCCN3C)nc3c(F)c(-c4nc(N)cc(C)c4C(F)(F)F)c(Cl)cc23)C(C)C1 , I see its viability, T/C listed as 11.8%

Entry CC(Nc1ccc2c(c1)OCCn1cc(N3C(=O)OCC3C(F)F)nc1-2)C(N)=O (stereo unspecified) + C=CC(=O)N1CCN(c2nc(OCC3CCCN3C)nc3c(F)c(-c4nc(N)cc(C)c4C(F)(F)F)c(Cl)cc23)C(C)C1 — recorded viability, T/C = 22.9%

Kindly note the recorded viability, T/C for C[C@@H](NC(=O)c1ncnc(N)c1Cl)c1ncc(C(=O)Nc2cc(C(F)(F)F)c(Cl)cn2)s1 + C=CC(=O)N1CCN(c2nc(OCC3CCCN3C)nc3c(F)c(-c4nc(N)cc(C)c4C(F)(F)F)c(Cl)cc23)C(C)C1 , which is 45.9%

Entry Cc1nc(N2CCC3(CC2)COC(C)C3N)c(CO)nc1Sc1ccnc(N)c1Cl (stereo unspecified) + C#Cc1c(F)ccc2cc(O)cc(-c3ncc4c(N5CC6CCC(C5)N6)nc(OCC56CCCN5CC(F)C6)nc4c3F)c12 , viability, T/C reported as 44.2%

Lab note: CC(=O)OC12COC1CC(O)C1(C)C(=O)C(O)C3=C(C)C(OC(=O)C(O)C(NC(=O)OC(C)(C)C)c4ccccc4)CC(O)(C(OC(=O)c4ccccc4)C21)C3(C)C (stereo unspecified) + C#Cc1c(F)ccc2cc(O)cc(-c3ncc4c(N5CC6CCC(C5)N6)nc(OCC56CCCN5CC(F)C6)nc4c3F)c12 gave viability, T/C of 56.1%
